Target: GST-Co-NF-kB (Capsaspora owczarzaki, UniProt F1ARL5 200-546)
Sequence: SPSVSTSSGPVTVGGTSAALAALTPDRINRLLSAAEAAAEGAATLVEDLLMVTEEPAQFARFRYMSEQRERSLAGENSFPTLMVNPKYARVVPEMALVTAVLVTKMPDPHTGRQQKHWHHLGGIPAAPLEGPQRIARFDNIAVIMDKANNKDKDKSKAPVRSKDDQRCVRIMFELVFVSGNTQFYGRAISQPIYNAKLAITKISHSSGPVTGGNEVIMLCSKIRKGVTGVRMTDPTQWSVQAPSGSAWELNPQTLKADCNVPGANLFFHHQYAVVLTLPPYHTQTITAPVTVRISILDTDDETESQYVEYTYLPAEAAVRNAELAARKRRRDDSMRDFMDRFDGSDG
Experiment: protein-binding microarray (PBM); PBM: ~300 nM protein, 6 mM HEPES pH 7.8, 80 mM KCl, 0.5 mM EDTA, 0.5 mM EGTA, 6% glycerol, 35 ng/ul poly-dIdC, 1% milk, 1 h, room temperature; Ap Aiptasia and Nv Nematostella (sea anemones) / Co Capsaspora / Aq Amphimedon (sponge) / Dm Drosophila / Hu human; RHD is the Rel homology domain; high values mean tight binding
Settings: dsDNA, one strand shown
attribute.measured: binding signal (z-score)

> print(dat)
                                       chain  test.result
 1  CCGATTAACATCACTATTCCCCCTGATGTTAATCGGGTCTTGATTCGCTTGACGCTGCTG         7.68
 2  CCGATTAACATCAAGGGAAAAATTGATGTTAATCGGGTCTTGATTCGCTTGACGCTGCTG         5.22
 3  CCGATTAACATCAAGAGTTTCCCTGATGTTAATCGGGTCTTGATTCGCTTGACGCTGCTG         3.98
 4  CCGATTAACATCATGCCCGGGAATGATGTTAATCGGGTCTTGATTCGCTTGACGCTGCTG         3.51
 5  CCGATTAACATCAGGGGATTTGATGATGTTAATCGGGTCTTGATTCGCTTGACGCTGCTG         2.37
 6  CCGATTAACATCAGGGGGGAGTATGATGTTAATCGGGTCTTGATTCGCTTGACGCTGCTG         6.88
 7  CCGATTAACATCAGGGGATGTACTGATGTTAATCGGGTCTTGATTCGCTTGACGCTGCTG         3.02
 8  CCGATTAACATCAGGTCACCCCATGATGTTAATCGGGTCTTGATTCGCTTGACGCTGCTG         2.51
 9  CCGATTAACATCAGGGTATTTAATGATGTTAATCGGGTCTTGATTCGCTTGACGCTGCTG         1.37
10  CCGATTAACATCAAGGGGGTAAATGATGTTAATCGGGTCTTGATTCGCTTGACGCTGCTG         6.69
11  CCGATTAACATCAAGGCATTCCCTGATGTTAATCGGGTCTTGATTCGCTTGACGCTGCTG         1.94
12  CCGATTAACATCAGGAACCCCCCTGATGTTAATCGGGTCTTGATTCGCTTGACGCTGCTG         3.38
13  CCGATTAACATCAGGGAAAACGATGATGTTAATCGGGTCTTGATTCGCTTGACGCTGCTG         3.39
14  CCGATTAACATCAGATTATCCCCTGATGTTAATCGGGTCTTGATTCGCTTGACGCTGCTG         5.37
15  CCGATTAACATCAATACACCCCCTGATGTTAATCGGGTCTTGATTCGCTTGACGCTGCTG         4.19
16  CCGATTAACATCAGCTTCCCCCCTGATGTTAATCGGGTCTTGATTCGCTTGACGCTGCTG         7.68
17  CCGATTAACATCAATCTACCCCCTGATGTTAATCGGGTCTTGATTCGCTTGACGCTGCTG         7.41
18  CCGATTAACATCAGGGGGTTAACTGATGTTAATCGGGTCTTGATTCGCTTGACGCTGCTG         2.64

Entry source: paper PMC5700166
